experiment: chemical genetic growth profiling, strain panel (AID 1159580);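 also: tested at 20 µM; growth read once vehicle control cultures reached saturation at 30 °C; lower values mean less growth of the strain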; conditions: S. cerevisiae deletion strains, growth OD, locus YKL085W, strain MDH1
About 2,000 (36%) of roughly 5,500 compounds were called active. Roughly 18% stayed inconclusive and do not appear here. Rule as the data show it: active = normalized growth mostly below about 0.91 (no sharp cut-off); inconclusive = no clear call, values can overlap the other calls; inactive = mostly above about 0.92. Some of the results follow.
Outcomes: true = active, false = inactive

INSERT INTO results (compound, group) VALUES
  ('C[C@@H]1OC(O[C@H]2C(O[C@H]3CC[C@@]4(C)C(CC[C@]5(C)C4CC=C4C6CC(C)(C)CC[C@]6(C(=O)O)CC[C@]45C)[C@]3(C)CO)OC[C@H](O)[C@@H]2O)[C@H](O)[C@H](O)[C@H]1O (stereo partly specified)', 'true'),
  ('C[C@@H]1OC(O[C@H]2[C@H](O)[C@@H](O)[C@H](OC[C@H]3O[C@@H](OC(=O)[C@]45CCC(C)(C)CC4C4=CCC6[C@@]7(C)CC[C@H](OC8OC[C@H](O)[C@H](O)[C@H]8OC8O[C@@H](C)[C@H](O)[C@@H](O)[C@H]8O)[C@@](C)(CO)C7CC[C@@]6(C)[C@]4(C)CC5)[C@H](O)[C@@H](O)[C@@H]3O)O[C@@H]2CO)[C@H](O)[C@H](O)[C@H]1O (stereo partly specified)', 'false'),
  ('CC(=O)O[C@H]1CC[C@@]2(C)C(CC[C@]3(C)C2C(=O)C=C2C4[C@@H](C)[C@H](C)CC[C@]4(C(=O)O)CC[C@]23C)C1(C)C (stereo partly specified)', 'true'),
  ('CC(C)CC(N(C)C)C1(c2ccc(Cl)cc2)CCC1 (stereo unspecified)', 'false'),
  ('O=C(COc1ccc(Cl)cc1)N1CCN(Cc2ccc3c(c2)OCO3)CC1', 'false'),
  ('CC1(C)CC[C@]2(C(=O)O)CC[C@]3(C)C(=CCC4[C@@]5(C)CC[C@H](O)[C@@](C)(CO)C5CC[C@]43C)C2C1 (stereo partly specified)', 'true');

Ref: PubChem BioAssay AID1159580
